target: Nucleic Acid; assay: Binding affinity to lysine riboswitch 179 lysc of Bacillus subtilis 168 M1 harboring G163A mutation in P4 motif; format: nucleic-acid assay, Bacillus subtilis subsp. subtilis str. 168
Attribute: Kd
Number in µM, nothing else.

Check out these entries, answers already filled in.
NCCCC[C@H](N)C(=O)O | 3
NCCS(=O)(=O)C[C@H](N)C(=O)O | 14

Input: I have this molecule here, NCCOC[C@H](N)C(=O)O , and I need its recorded Kd.
Output: 29

----------
target: Nucleic Acid; test: Binding affinity to Bacillus subtilis 168 1A1 lysine riboswitch 179 lysc by in-line probing assay; assay type: nucleic-acid assay, Bacillus subtilis subsp. subtilis str. 168
OBSERVED PROPERTY: Kd

Illustrative cases are given below, each with its answer.
Nc1ccccc1C(=O)C[C@H](N)C(=O)O [L-KYNURENINE] | > 1000 µM
CC(=O)N[C@@H](CCCCN)C(=O)O | > 1000 µM

Please turn your attention to the following entry.
Input: What does the data say about its Kd? Entry: NCC(=O)CCC(N)C(=O)O (racemic)
Output: > 1000 µM

Data origin, for the record: ChEMBL document CHEMBL1240320
